B1: tRNA (parent)
chain: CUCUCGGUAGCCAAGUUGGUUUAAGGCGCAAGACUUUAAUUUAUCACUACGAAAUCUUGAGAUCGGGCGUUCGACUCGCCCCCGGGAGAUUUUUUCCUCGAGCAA

variants of: B1; assay: nonsense suppression (GFP-seq) (ratio to wild type); higher = more function; SUP4oc tRNA, yeast GFP reporter sort-seq
Variants at the floor of the assay were thinned out.
metric: nonsense suppression
Give bare numbers.

Before answering, review these 2 worked examples.
>>> df
     variant                metric  recorded_result
0       C29A  nonsense suppression            0.113
1  A13U G69A  nonsense suppression            0.072

Record nonsense suppression per entry; entries follow.
1. U22A G73A
2. U17G A30G
3. U76C
4. G61U U63C

[A]
1. 0.325
2. 0.397
3. 1
4. 0.808
